target: PfCRT^Dd2 (Plasmodium falciparum, UniProt Q9N623, A220S/I356T/K76T/M74I/N326S/N75E/Q271E/R371I); assay: [3H]CQ uptake into Xenopus oocytes, cis-inhibition by unlabelled solute; assay type: cell-based; details: read-out: [3H]CQ transport (% PfCRTDd2 control), cis-inhibition, PfCRTDd2; SEM
Sequence (Q9N623 whole entry A220S/I356T/K76T/M74I/N326S/N75E/Q271E/R371I): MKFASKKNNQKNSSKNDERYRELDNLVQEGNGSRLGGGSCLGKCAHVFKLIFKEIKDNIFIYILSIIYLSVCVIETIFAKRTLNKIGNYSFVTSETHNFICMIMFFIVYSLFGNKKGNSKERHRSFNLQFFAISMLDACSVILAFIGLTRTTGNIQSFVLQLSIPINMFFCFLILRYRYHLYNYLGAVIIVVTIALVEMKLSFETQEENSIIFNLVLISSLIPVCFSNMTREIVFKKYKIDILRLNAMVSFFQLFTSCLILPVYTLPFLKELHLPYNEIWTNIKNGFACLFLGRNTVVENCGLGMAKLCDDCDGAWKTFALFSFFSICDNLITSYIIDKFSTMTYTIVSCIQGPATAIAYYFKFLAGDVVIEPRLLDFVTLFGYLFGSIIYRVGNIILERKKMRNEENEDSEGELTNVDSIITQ
result-type: inhibition at 1000 µM (%)
Give bare numbers, in %.

Reference set, count: 5
CC(C)[C@H](N)C(=O)O [L-valine]: 98
N[C@@H](CCC(=O)O)C(=O)O [L-glutamic acid]: 94
N[C@@H](CS)C(=O)O [L-cysteine]: 95
N[C@@H](Cc1c[nH]c2ccccc12)C(=O)O [L-tryptophan]: 95
NC(=O)CC[C@H](N)C(=O)O [L-glutamine]: 98

I would be grateful if you could share the reported inhibition at 1000 µM for N=C(N)NCCC[C@H](N)C(=O)O [L-arginine] .
99
